Values compiled from PubChem BioAssay AID1159565.

# Test system: T. cruzi-infected H9C2 cardiomyocytes, high-content imaging
# assay_procedure: intracellular T. cruzi amastigote inhibition, imaging, H9C2 host cardiomyocytes, host toxicity (AID 1159565);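 note: infected cells incubated 72 h after plating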
# test_context: measured here: H9C2 host cell toxicity
measured_quantity: IC50 (µM)
Record the value in µM, omitting the unit from your answer.

IC50 for "Cc1nc2c(-c3nc(-c4ccc(N)cc4)n[nH]3)cccn2c1C" ?
10

###

Measured log10 of IC50 accompanies every entry in the list below.
# Test system: T. cruzi-infected H9C2 cardiomyocytes, high-content imaging
# assay_procedure: intracellular T. cruzi amastigote inhibition, imaging, H9C2 host cardiomyocytes, host toxicity (AID 1159565);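 note: infected cells incubated 72 h after plating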
# test_context: measured here: amastigotes per cell
// units: nM (pre-log); metric: IC50; scale: log10

Below: 10 compounds and their reported log10 of IC50.
> print(dat)
                                    compound  measured.quantity  recorded.result
 1  CC(C)Oc1ccc(C(=O)Nc2ccc(N3CCOCC3)c(Cl)c2)cc1      log10 of IC50             3.11
 2  c1ccc(CCNCc2cncc3nc(-c4cnccn4)n(C4CCCCC4)c23)cc1      log10 of IC50             2.11
 3  CNc1cncc(C2CCCN2C(=O)Cc2ccc3ccccc3c2)n1 (centres undefined)      log10 of IC50             2.20
 4     Nc1cc(-c2ccc3ncnc(N4CCOCC4)c3c2)cnc1N      log10 of IC50             3.20
 5  COc1ccc(-c2cc(C)no2)cc1S(=O)(=O)Nc1ccc(F)c(Cl)c1      log10 of IC50             3.60
 6    O=C(c1ccc(O)c(Cl)c1)N1CCN(c2cnccn2)CC1      log10 of IC50             4.00
 7  Cc1ccc2onc(Nc3ccnc(Nc4cccc(S(C)(=O)=O)c4)n3)c2c1      log10 of IC50             2.60
 8           c1cc(-c2ncc(-c3ccn[nH]3)s2)ccn1      log10 of IC50             2.40
 9  CC(C)N(C(=O)CN1C(=O)C(N)C(=O)N(c2ccccc2)c2ccccc21)c1ccccc1 (centres undefined)      log10 of IC50             2.60
10          c1ccc2sc(Nc3nc4ncccc4[nH]3)nc2c1      log10 of IC50             3.11

// log10 of IC50 lookup, key: "O=C(CN(Cc1ccccn1)Cc1ccccn1)NCc1ccc2c(c1)OCO2"
3.80

Endpoint output: log10 of IC50 of COc1ccc(C2=NCC(CSc3nnc(-c4ccc5c(c4)OCO5)o3)S2)cc1 (centres undefined) . Value?
2.51

What value of measured log10 of IC50 is listed for "CCNc1cc(-c2ccccn2)nc(Nc2ccc(OC)cc2)n1" ?
3.40
